// reported IC50 per item
# target: AKT2 (Homo sapiens)
# Sequence (P31751 whole entry): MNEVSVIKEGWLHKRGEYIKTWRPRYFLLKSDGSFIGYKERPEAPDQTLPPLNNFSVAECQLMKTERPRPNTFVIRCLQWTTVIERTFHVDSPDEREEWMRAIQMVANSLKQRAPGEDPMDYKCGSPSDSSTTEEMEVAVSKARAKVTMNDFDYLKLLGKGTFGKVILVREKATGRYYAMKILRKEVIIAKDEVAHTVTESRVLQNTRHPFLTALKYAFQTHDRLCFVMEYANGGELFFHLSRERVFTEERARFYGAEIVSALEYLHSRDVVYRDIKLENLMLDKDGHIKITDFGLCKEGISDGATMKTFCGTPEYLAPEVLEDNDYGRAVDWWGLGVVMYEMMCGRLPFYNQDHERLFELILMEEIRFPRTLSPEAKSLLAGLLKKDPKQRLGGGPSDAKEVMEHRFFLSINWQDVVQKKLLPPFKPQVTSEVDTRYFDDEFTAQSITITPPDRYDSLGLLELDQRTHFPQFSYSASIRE
# experiment-summary: Live cell AKT2 target engagement by NanoBRET competitive probe displacement
# condition-context: HEK293 cells transfected with kinase-NanoLuciferase fusion, 2 h at 37° C.
Kindly answer with a numeric value in nM, unit omitted.

Would you please look over these solved cases?
# compound, target, IC50 / nM
rows = [
    ("C=CC(=O)N1CCC(N(CC2COC2)[C@H]2CCc3cc(-n4c(-c5cccnc5N)nc5ccc(-n6cccn6)nc54)ccc32)CC1", "AKT2 (Homo sapiens)", 198),
    ("C=CC(=O)N1CCC(NC2c3ccc(-n4c(-c5cccnc5N)nc5ccc(-n6ccc(C7CC7)n6)nc54)cc3CC2F)CC1C(F)F (single isomer, unassigned) [Example 336]", "AKT2 (Homo sapiens)", 25.4),
]

Tell me IC50 reported for C=CC(=O)N1CCC(N[C@H]2CCc3cc(-n4c(-c5cccnc5N)nc5ccc(-n6ccc(OC7CC7)n6)nc54)ccc32)CC1
23.8

----------
// reported pIC50 per item
# target: AKT1 WT (Homo sapiens, UniProt P31749)
# Sequence (P31749 whole entry): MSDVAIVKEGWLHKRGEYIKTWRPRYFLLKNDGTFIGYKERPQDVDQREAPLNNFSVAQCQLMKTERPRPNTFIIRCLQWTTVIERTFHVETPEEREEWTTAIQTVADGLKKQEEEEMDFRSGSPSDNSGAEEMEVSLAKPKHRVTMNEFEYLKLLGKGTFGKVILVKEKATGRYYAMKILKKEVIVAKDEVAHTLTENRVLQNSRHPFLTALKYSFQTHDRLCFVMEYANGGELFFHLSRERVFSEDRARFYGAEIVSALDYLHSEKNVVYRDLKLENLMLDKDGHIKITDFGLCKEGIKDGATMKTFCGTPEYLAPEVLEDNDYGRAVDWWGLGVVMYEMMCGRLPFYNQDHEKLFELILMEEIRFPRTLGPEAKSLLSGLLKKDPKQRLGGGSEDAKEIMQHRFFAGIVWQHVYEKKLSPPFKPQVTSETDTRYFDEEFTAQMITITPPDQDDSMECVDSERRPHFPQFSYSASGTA
# experiment-summary: Live cell AKT1 WT target engagement by NanoBRET competitive probe displacement
# condition-context: HEK293 cells transfected with kinase-NanoLuciferase fusion, 2 h at 37° C.
// scale note: pIC50 = -log10(conc_M); give the bare number

# molecule, target, pIC50
rows = [
    ("Nc1ncccc1-c1nc2ccc(-n3cccn3)nc2n1-c1ccc2c(c1)CC[C@@H]2NC(=O)c1ccccc1NC(=O)C1=CCCC1", "AKT1 WT (Homo sapiens, UniProt P31749)", 7.03),
    ("C=CC(=O)N1C[C@H]2CCC[C@@H](C1)C2N[C@H]1CCc2cc(-n3c(-c4cccnc4N)nc4ccc(-n5cccn5)nc43)ccc21 (single isomer, unassigned) [Example 189]", "AKT1 WT (Homo sapiens, UniProt P31749)", 5.83),
    ("C=CC(=O)Nc1cccc(C)c1C(=O)N[C@H]1CCc2cc(-n3c(-c4cccnc4N)nc4ccc(-n5cccn5)nc43)ccc21", "AKT1 WT (Homo sapiens, UniProt P31749)", 7.46),
    ("C=CC(=O)N1CCC(N[C@@H]2CCc3cc(-n4c(-c5cccnc5N)nc5ccc(-n6cccn6)nc54)ccc3C2)CC1", "AKT1 WT (Homo sapiens, UniProt P31749)", 7.63),
    ("C=CC(=O)N1CCC(N[C@@H]2c3ccc(-n4c(-c5cccnc5N)nc5ccc(-n6ccc(F)n6)nc54)cc3CC2F)C[C@H]1C (single isomer, unassigned) [Example 274]", "AKT1 WT (Homo sapiens, UniProt P31749)", 6.16),
    ("C=CC(=O)N1CCC(N[C@H]2CCc3cc(-n4c(-c5cccnc5N)nc5ccc(C6CC6)nc54)ccc32)C[C@H]1C (single isomer, unassigned) [Example 210]", "AKT1 WT (Homo sapiens, UniProt P31749)", 6.04),
    ("C=CC(=O)N1CCc2cccc(C(=O)N[C@H]3CCc4cc(-n5c(-c6cccnc6N)nc6ccc(-n7cccn7)nc65)ccc43)c2C1", "AKT1 WT (Homo sapiens, UniProt P31749)", 7.29),
    ("C=CC(=O)N1CCC(N[C@H]2CCc3cc(-n4c(-c5cccnc5N)nc5ccc(-n6cccn6)nc54)ccc32)C[C@H]1COC (single isomer, unassigned) [Example 130]", "AKT1 WT (Homo sapiens, UniProt P31749)", 7.58),
    ("C=CC(=O)N1CCC(N[C@H]2CC(O)c3cc(-n4c(-c5cccnc5N)nc5ccc(-n6cccn6)nc54)ccc32)CC1 (single isomer, unassigned) [Example 219]", "AKT1 WT (Homo sapiens, UniProt P31749)", 6.55),
    ("C=C1CCN(c2ccccc2C(=O)N[C@H]2CCc3cc(-n4c(-c5cccnc5N)nc5ccc(-n6cccn6)nc54)ccc32)C1=O", "AKT1 WT (Homo sapiens, UniProt P31749)", 6.54),
]

Tell me pIC50 reported for C=CC(=O)N1CCC(N[C@H]2CCc3cc(-n4c(-c5cccnc5N)nc5ccc(-n6ccc(C7CCCC7)n6)nc54)ccc32)CC1
6.73

Tell me pIC50 reported for C=CC(=O)N1C[C@H]2CCC[C@@H](C1)C2N[C@H]1CCc2cc(-n3c(-c4cccnc4N)nc4ccc(-n5cccn5)nc43)ccc21 (single isomer, unassigned) [Example 188]
7.46

----------
# target: AKT1 E17K (Homo sapiens, UniProt P31749, E17K)
# Sequence (P31749 whole entry E17K): as the sequence (P31749 whole entry) above, with E17K counted along it
# experiment-summary: Live cell AKT1 E17K target engagement by NanoBRET competitive probe displacement
# condition-context: HEK293 cells transfected with kinase-NanoLuciferase fusion, 2 h at 37° C.
readout: IC50 (nM)
Kindly answer with a numeric value in nM, unit omitted.

Would you please look over these solved cases?
# molecule, target, units-symbol, IC50
data = [
    ("C=CC(=O)N1CCC(N[C@H]2CCc3cc(-n4c(-c5cccnc5N)nc5ccc(-n6cccn6)nc54)ccc32)C[C@@H]1C(F)F (single isomer, unassigned) [Example 213]", "AKT1 E17K (Homo sapiens, UniProt P31749, E17K)", "nM", 4.87),
    ("C=CC(=O)N1CCC(N[C@@H]2c3ccc(-n4c(-c5ccccc5F)nc5ccc(-n6cccn6)nc54)cc3CC2F)C[C@H]1C (single isomer, unassigned) [Example 318]", "AKT1 E17K (Homo sapiens, UniProt P31749, E17K)", "nM", 29.7),
    ("C=CC(=O)N1CCC(N[C@H]2CCc3cc(-n4c(-c5cccnc5N)nc5ccc(-n6cccn6)nc54)ccc32)C(F)C1 (single isomer, unassigned) [Example 103]", "AKT1 E17K (Homo sapiens, UniProt P31749, E17K)", "nM", 80.1),
    ("C=CC(=O)N1C[C@H]2COC[C@@H](C1)C2N[C@H]1CCc2cc(-n3c(-c4cccnc4N)nc4ccc(C5CC5)nc43)ccc21 (single isomer, unassigned) [Example 172]", "AKT1 E17K (Homo sapiens, UniProt P31749, E17K)", "nM", 50.9),
    ("C=CC(=O)Nc1cccc(C(=O)N[C@H]2CCc3cc(-n4c(-c5cccnc5N)nc5ccc(-n6cccn6)nc54)ccc32)c1 [Example 2]", "AKT1 E17K (Homo sapiens, UniProt P31749, E17K)", "nM", 22.7),
    ("CC#CC(=O)N1CCC(N[C@H]2CCc3cc(-n4c(-c5cccnc5N)nc5ccc(-n6cccn6)nc54)ccc32)CC1 [Example 69]", "AKT1 E17K (Homo sapiens, UniProt P31749, E17K)", "nM", 57.7),
    ("C=CC(=O)NCc1ccccc1C(=O)N[C@H]1CCc2cc(-n3c(-c4cccnc4N)nc4ccc(-n5cccn5)nc43)ccc21 [Example 71]", "AKT1 E17K (Homo sapiens, UniProt P31749, E17K)", "nM", 9.43),
    ("C=CC(=O)N1CCC(N(CC2COC2)[C@H]2CCc3cc(-n4c(-c5cccnc5N)nc5ccc(-n6cccn6)nc54)ccc32)CC1 [Example 161]", "AKT1 E17K (Homo sapiens, UniProt P31749, E17K)", "nM", 110),
    ("C=CC(=O)N1CCC(N[C@H]2CCc3cc(-n4c(-c5cccnc5N)nc5ccc(-c6cnn(C(F)F)c6)nc54)ccc32)CC1 [Example 187]", "AKT1 E17K (Homo sapiens, UniProt P31749, E17K)", "nM", 7.3),
    ("C=CS(=O)(=O)Nc1ccccc1C(=O)N[C@H]1CCc2cc(-n3c(-c4cccnc4N)nc4ccc(-n5cccn5)nc43)ccc21 [Example 24]", "AKT1 E17K (Homo sapiens, UniProt P31749, E17K)", "nM", 14.1),
]

Tell me IC50 reported for C=CC(=O)N1CCCC(N[C@H]2CCc3cc(-n4c(-c5cccnc5N)nc5ccc(-n6cccn6)nc54)ccc32)C1 (single isomer, unassigned) [Example 124]
99.2

Tell me IC50 reported for C=CC(=O)N1CCC(N[C@H]2CCc3cc(-n4c(-c5cccnc5N)nc5ccc(-c6nc(C)co6)nc54)ccc32)CC1 [Example 253]
14.5

Tell me IC50 reported for C=CC(=O)N1CCCC(N[C@H]2CCc3cc(-n4c(-c5cccnc5N)nc5ccc(-n6cccn6)nc54)ccc32)CC1 (single isomer, unassigned) [Example 82]
247

Tell me IC50 reported for C=CC(=O)N1Cc2cccc(C(=O)N[C@H]3CCc4cc(-n5c(-c6cccnc6N)nc6ccc(-n7cccn7)nc65)ccc43)c2C1 [Example 266]
3.34

----------
# target: AKT1 WT (Homo sapiens, UniProt P31749)
# experiment-summary: Live cell AKT1 WT target engagement by NanoBRET competitive probe displacement
# condition-context: HEK293 cells transfected with kinase-NanoLuciferase fusion, 2 h at 37° C.
// reported IC50 per item
Kindly answer with a numeric value in µM, unit omitted.

Would you please look over these solved cases?
# compound, target, units-symbol, IC50
rows = [
    ("C=CC(=O)N1CCC(NC2CCc3cc(-n4c(-c5cccnc5N)nc5ccc(C(F)F)nc54)ccc32)CC1 (stereo in doubt) [Example 196]", "AKT1 WT (Homo sapiens, UniProt P31749)", "µM", 1.99),
    ("C=CC(=O)N1CCC(CC2CCc3cc(-n4c(-c5cccnc5N)nc5ccc(-n6cccn6)nc54)ccc32)CC1 (single isomer, unassigned) [Example 343]", "AKT1 WT (Homo sapiens, UniProt P31749)", "µM", 0.0861),
]

// next entry
Tell me IC50 reported for C=CC(=O)N1CCC(N[C@@H]2c3ccc(-n4c(-c5cccnc5N)nc5ccc(-n6cccn6)nc54)cc3CC2F)C(C)C1 (single isomer, unassigned) [Example 291]
1.58
